Test system: SK-OV-3
Measurement Description: NCI tumour cell line growth inhibition, 48 h
Calls of active or inactive are those of the source. Rule as the data show it: active = GI50 up to about 1.1 µM and inactive = higher.
Each item that follows carries a reported GI50.

The cases that follow already have their GI50 on record.
O=C(O)CCCCn1cnc2c(S)ncnc21
> 100 µM (inactive)
CCOC(=O)NC(=O)c1cn(CCCO)c(=O)[nH]c1=O
> 100 µM (inactive)
CCc1nc2cc(/N=N/c3c(O)ccc4ccccc34)ccc2[nH]1
24.7 µM (inactive)
O=c1cc(N=P(c2ccccc2)(c2ccccc2)c2ccccc2)n(-c2ccccc2)c(=O)n1-c1ccccc1
22.2 µM (inactive)
Nc1nc2ccc(Sc3ccc4nc(N)[nH]c(=O)c4c3)cc2c(=O)[nH]1
> 100 µM (inactive)

Give SK-OV-3 GI50 for `CCCCOCCOC1=CC(=O)c2c(O)ccc(O)c2C1=O`
> 10 µM (inactive)
